System: SK-MEL-2
test.description: NCI 60 single concentration growth inhibition
Assay type: cell-based, human
condition: Homo sapiens, SK-MEL-2, Melanoma, read-out: GI%
Give Met when the value for inhibition at 10 µM is at least 30%. Give Not met when it is less.

- compound: "COc1ccc(-c2nc3cc(Cl)c(Cl)cc3n2CC(=O)NN=Cc2cccc(O)c2)cc1 [Compound 10a]"
  label.class: "Met"
- compound: "COc1ccc(-c2nc3cc(Cl)c(Cl)cc3n2CC(=O)NN=Cc2ccc(OCC(=O)O)cc2)cc1 [Compound 10f]"
  label.class: "Not met"
- compound: "COC(=O)COc1ccc(C=NNC(=O)Cn2c(-c3ccc(OC)cc3)nc3cc(Cl)c(Cl)cc32)cc1OC [Compound 10p]"
  label.class: "Not met"
- compound: "CCOC(=O)C(C)Oc1ccc(C=NNC(=O)Cn2c(-c3ccc(OC)cc3)nc3cc(Cl)c(Cl)cc32)cc1 (stereo not shown) [Compound 10j]"
  label.class: "Not met"
- compound: "COc1ccc(-c2nc3cc(Cl)c(Cl)cc3n2CC(=O)NN=Cc2ccc(O)cc2)cc1 [Compound 10b]"
  label.class: "Met"
- compound: "COc1ccc(-c2nc3cc(Cl)c(Cl)cc3n2CC(=O)NN=Cc2cccc(OC)c2)cc1 [Compound 10c]"
  label.class: "Not met"
- compound: "COc1ccc(-c2nc3cc(Cl)c(Cl)cc3n2CC(=O)NN=Cc2cccc(OCC(=O)O)c2)cc1 [Compound 10e]"
  label.class: "Not met"

---

# GI% values compiled below
Test system: NCI-H322M
test.description: NCI 60 single concentration growth inhibition
Assay type: cell-based, human
condition: Non-small cell lung cancer, 10 μM

- molecule: "COC(=O)COc1cc(C=NNC(=O)Cn2c(-c3ccc(OC)cc3)nc3cc(Cl)c(Cl)cc32)ccc1OC [Compound 10o]"
  result.units: "%"
  GI%: 11.69
- molecule: "COc1ccc(-c2nc3cc(Cl)c(Cl)cc3n2CC(=O)NN=Cc2ccc(OC)c(O)c2)cc1 [Compound 10k]"
  result.units: "%"
  GI%: 8.94

---

Tested on: SK-MEL-2
test.description: NCI 60 single concentration growth inhibition
Assay type: cell-based, human
condition: Homo sapiens, SK-MEL-2, Melanoma, read-out: GI%
outcome.measure: inhibition at 10 µM (%)

- molecule: "COc1ccc(C=NNC(=O)Cn2c(-c3ccc(OC)cc3)nc3cc(Cl)c(Cl)cc32)cc1 [Compound 10d]"
  outcome.measure: "inhibition at 10 µM"
  measurement.qualifier: "="
  endpoint.value: 30.9
- molecule: "COc1ccc(-c2nc3cc(Cl)c(Cl)cc3n2CC(=O)NN=Cc2ccc(OC)c(O)c2)cc1 [Compound 10k]"
  outcome.measure: "inhibition at 10 µM"
  measurement.qualifier: "="
  endpoint.value: 40.2
- molecule: "COc1ccc(-c2nc3cc(Cl)c(Cl)cc3n2CC(=O)NN=Cc2ccc(O)c(OC)c2)cc1 [Compound 10l]"
  outcome.measure: "inhibition at 10 µM"
  measurement.qualifier: "="
  endpoint.value: 18.6
- molecule: "COC(=O)COc1ccc(C=NNC(=O)Cn2c(-c3ccc(OC)cc3)nc3cc(Cl)c(Cl)cc32)cc1 [Compound 10h]"
  outcome.measure: "inhibition at 10 µM"
  measurement.qualifier: "="
  endpoint.value: 26.4
- molecule: "COC(=O)COc1cc(C=NNC(=O)Cn2c(-c3ccc(OC)cc3)nc3cc(Cl)c(Cl)cc32)ccc1OC [Compound 10o]"
  outcome.measure: "inhibition at 10 µM"
  measurement.qualifier: "="
  endpoint.value: 26.6
- molecule: "COC(=O)COc1cccc(C=NNC(=O)Cn2c(-c3ccc(OC)cc3)nc3cc(Cl)c(Cl)cc32)c1 [Compound 10g]"
  outcome.measure: "inhibition at 10 µM"
  measurement.qualifier: "<"
  endpoint.value: 5
